For each entry below, report its pEC50 value.
measurementTarget: T1, recombinant human midkine (huMK) (human, UniProt P21741 21-143)
T1 construct: also called human MK; Human MK
T1 sequence (looked up): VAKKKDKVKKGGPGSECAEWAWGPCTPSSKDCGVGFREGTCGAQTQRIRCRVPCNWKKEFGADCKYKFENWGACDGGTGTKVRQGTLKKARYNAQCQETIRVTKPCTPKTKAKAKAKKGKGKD
assayDetails: ELISA, plate coated with huMK
On this scale, pEC50 is minus log10 of a concentration expressed in M (mol/L).

Exam item: Consider the binder IP14-H5L4 (antibody, V domains shown, also called Hv5 Lv4) VH: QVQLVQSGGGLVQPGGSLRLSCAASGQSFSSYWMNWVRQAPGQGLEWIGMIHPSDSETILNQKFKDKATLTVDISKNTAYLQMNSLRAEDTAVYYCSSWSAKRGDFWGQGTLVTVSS VL: EIVLTQSPDFQSVTPKEKVNITCRASESISNNLHWYQQKPHQSPKLLIYYASQSISGVPSRFSGSGSGTDFNLTINSVEAEDAATYYCQQSNSWPLTFGGGTKLEIKR and give its recorded pEC50.
Marked response: 10.16

Exam item: Give recorded pEC50. IP14-H2L8 (antibody, V domains shown, also called hIP14-H2L8; Hv2 Lv8) VH: QVQLVQSGAEVKKPGASVKVSCKASGQSFSSYWMNWVRQAPGQGLEWIGMIHPSDSETILNQKFKDKATLTVDISTSTAYMELSSLRSEDTAVYYCSSWSAKRGDFWGQGTLVTVSS VL: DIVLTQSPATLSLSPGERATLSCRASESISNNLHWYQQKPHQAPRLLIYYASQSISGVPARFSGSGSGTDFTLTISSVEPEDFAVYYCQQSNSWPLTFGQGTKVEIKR
Marked response: 10.25

Exam item: Consider the binder IP14-H6L4 (antibody, V domains shown, also called Hv6 Lv4) VH: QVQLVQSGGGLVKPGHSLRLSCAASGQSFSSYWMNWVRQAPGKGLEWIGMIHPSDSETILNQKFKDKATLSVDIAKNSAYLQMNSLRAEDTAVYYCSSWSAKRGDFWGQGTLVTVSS VL: EIVLTQSPDFQSVTPKEKVNITCRASESISNNLHWYQQKPHQSPKLLIYYASQSISGVPSRFSGSGSGTDFNLTINSVEAEDAATYYCQQSNSWPLTFGGGTKLEIKR . State its measured pEC50.
Marked response: 10.14

Exam item: Give pEC50 for IP14-H3L1 (antibody, V domains shown, also called Hv3 Lv1) VH: QVQLVQSGAEVKKPGASVKVSCKASGQSFSSYWMNWVRQAPGQGLEWMGMIHPSDSETILNQKFKDKVTMTRDTSTSTVYMELSSLRSEDTAVYYCARWSAKRGDFWGQGTLVTVSS VL: EIVLTQSPATLSLSPGERANLSCRASESISNNLHWYQQKPHQAPRLLIKYASQSISGIPARFSGSGPGTDFNLTISSVEPEDFAVYYCQQSNSWPLTFGGGTKLEIKR
Marked response: 10.04

Exam item: Identify the reported pEC50 for the following entry. IP14-H2L4 (antibody, V domains shown, also called Hv2 Lv4) VH: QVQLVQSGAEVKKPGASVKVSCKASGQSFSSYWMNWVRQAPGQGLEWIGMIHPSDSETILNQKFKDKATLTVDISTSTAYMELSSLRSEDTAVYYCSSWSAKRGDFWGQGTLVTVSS VL: EIVLTQSPDFQSVTPKEKVNITCRASESISNNLHWYQQKPHQSPKLLIYYASQSISGVPSRFSGSGSGTDFNLTINSVEAEDAATYYCQQSNSWPLTFGGGTKLEIKR
Marked response: 10.28

Exam item: Tell us which pEC50 value is on record for IP14-H2L2 (antibody, V domains shown, also called Hv2 Lv2) VH: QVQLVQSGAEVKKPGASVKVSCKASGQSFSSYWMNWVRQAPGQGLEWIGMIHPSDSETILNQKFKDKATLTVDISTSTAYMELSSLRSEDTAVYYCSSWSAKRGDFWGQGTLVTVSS VL: EIVLTQSPATLSLSPGERATLSCRASESISNNLHWYQQKPGQAPRLLIKYASQSISGIPARFSGSGPGTDFTLTISSVEPEDFAVYYCQQSNSWPLTFGGGTKLEIKR
Marked response: 10.00

Exam item: Give pEC50 for IP14-H5L6 (antibody, V domains shown, also called Hv5 Lv6) VH: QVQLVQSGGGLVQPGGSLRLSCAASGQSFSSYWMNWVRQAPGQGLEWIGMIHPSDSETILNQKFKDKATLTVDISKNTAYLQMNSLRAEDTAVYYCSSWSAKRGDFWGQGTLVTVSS VL: EIVLTQSPSTLSASVGDRVNITCRASESISNNLHWYQQKPHKAPKLLIYYASQSISGVPSRFSGSGSGTEFNLTISSVQPDDFATYYCQQSNSWPLTFGQGTKVEIKR
Marked response: 10.14

Exam item: # return recorded pEC50 for input IP14-H2L7 (antibody, V domains shown, also called Hv2 Lv7) VH: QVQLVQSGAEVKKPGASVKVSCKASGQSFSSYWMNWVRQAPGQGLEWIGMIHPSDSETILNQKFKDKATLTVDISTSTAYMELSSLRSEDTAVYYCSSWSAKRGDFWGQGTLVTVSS VL: DIVLTQSPATLSLSPGERANLSCRASESISNNLHWYQQKPHQAPRLLIYYASQSISGVPARFSGSGSGTDFNLTISSVEPEDFAVYYCQQSNSWPLTFGQGTKVEIKR
Marked response: 10.24

Exam item: Input IP14-H2L3 (antibody, V domains shown, also called hIP14-H2L3; Hv2 Lv3) VH: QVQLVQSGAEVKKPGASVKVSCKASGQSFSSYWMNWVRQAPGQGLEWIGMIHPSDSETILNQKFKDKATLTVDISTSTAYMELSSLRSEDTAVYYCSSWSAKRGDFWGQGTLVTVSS VL: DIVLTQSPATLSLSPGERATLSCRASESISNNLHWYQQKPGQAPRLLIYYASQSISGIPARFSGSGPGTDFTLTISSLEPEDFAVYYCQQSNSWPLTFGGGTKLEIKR , output reported pEC50.
Marked response: 10.17

Exam item: Supply pEC50 value. Item: IP14 Hv0 Lv8 (antibody, V domains shown) VH: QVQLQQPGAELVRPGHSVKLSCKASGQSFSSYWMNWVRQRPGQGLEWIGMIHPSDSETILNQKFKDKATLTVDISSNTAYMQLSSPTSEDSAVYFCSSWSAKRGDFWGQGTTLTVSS VL: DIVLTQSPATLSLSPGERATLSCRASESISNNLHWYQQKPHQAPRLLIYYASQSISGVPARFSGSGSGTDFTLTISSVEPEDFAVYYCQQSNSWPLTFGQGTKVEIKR
Marked response: 10.10
